test system: rodent lifetime carcinogenesis bioassay, tumor incidence TD50; assay: carcinogenic potency in animals, long-term in vivo studies, CPDB compilation (AID 1745844); details: mouse; strain Swiss; males; in drinking water; site: lung; lesion: adenoma; dosed 78 weeks; study length 135 weeks
Reported metric: TD50

Briefly, TD50 measured for C=COC(C)=O : 5750 mg/kg/day

====

test system: rodent lifetime carcinogenesis bioassay, tumor incidence TD50; assay: carcinogenic potency in animals, long-term in vivo studies, CPDB compilation (AID 1745844); details: mouse; strain B6C3F1; males; i.p.; site: any site (literature study); lesion: several types; types named in the paper; dosed 52 weeks; study length 81 weeks
Reported metric: TD50 (mg/kg/day)
Give bare numbers, in mg/kg/day.

Briefly, TD50 measured for Nc1ncn([C@@H]2O[C@H](CO)[C@@H](O)[C@H]2O)c(=O)n1 : 1.05

====

tested on: rodent lifetime carcinogenesis bioassay, tumor incidence TD50; experiment: carcinogenic potency in animals, long-term in vivo studies, CPDB compilation (AID 1745844); details: rat; strain Fischer 344; males; by gavage; site: skin; lesion: basal-cell adenoma + keratoacanthoma + squamous-cell papilloma; dosed 64 weeks; study length 104 weeks
Reported metric: TD50
Could you kindly put the unit after your number?

Briefly, TD50 measured for O=C1CCc2ccccc2O1 : 258 mg/kg/day

====

system: rodent lifetime carcinogenesis bioassay, tumor incidence TD50; assay: carcinogenic potency in animals, long-term in vivo studies, CPDB compilation (AID 1745844); details: rat; strain Wistar; females; by gavage; site: forestomach; lesion: squamous-cell carcinoma; dosed 104 weeks; study length 104 weeks
Reported metric: TD50

Briefly, TD50 measured for ClCC1CO1 (stereo unspecified) : 2.55 mg/kg/day

====

test system: rodent lifetime carcinogenesis bioassay, tumor incidence TD50; assay: carcinogenic potency in animals, long-term in vivo studies, CPDB compilation (AID 1745844); conditions: mouse; strain B6C3F1; males; in feed; site: liver; lesion: hepatocellular adenoma + hepatocellular carcinoma + neoplastic nodule; dosed 80 weeks; study length 91 weeks
Reported metric: TD50 (mg/kg/day)
Give bare numbers, in mg/kg/day.

Briefly, TD50 measured for ClC1=C(Cl)[C@]2(Cl)[C@@H]3[C@@H]4C[C@@H]([C@H]5O[C@@H]45)[C@@H]3[C@@]1(Cl)C2(Cl)Cl : 1.04

====

test system: rodent lifetime carcinogenesis bioassay, tumor incidence TD50; assay: carcinogenic potency in animals, long-term in vivo studies, CPDB compilation (AID 1745844); details: rat; strain Fischer 344; males; in feed; site: liver; lesion: hepatocellular carcinoma; dosed 78 weeks; study length 104 weeks
Reported metric: TD50

* Cc1ccc2c(c1N)C(=O)c1ccccc1C2=O | 150 mg/kg/day

Turning to the following compound.
Briefly, TD50 measured for CC(C)CCCCCCOC(=O)c1ccccc1C(=O)OCCCCCCC(C)C : 9740 mg/kg/day

====

system: rodent lifetime carcinogenesis bioassay, tumor incidence TD50; test: carcinogenic potency in animals, long-term in vivo studies, CPDB compilation (AID 1745844); conditions: rat; strain Sprague-Dawley; males; inhaled; site: liver; lesion: angiosarcoma; dosed 52 weeks; study length 139 weeks
Reported metric: TD50

The molecule C=CCl , tested on rodent lifetime carcinogenesis bioassay, tumor incidence TD50, showed TD50 of 75.8 mg/kg/day

====

tested on: rodent lifetime carcinogenesis bioassay, tumor incidence TD50; test: carcinogenic potency in animals, long-term in vivo studies, CPDB compilation (AID 1745844); conditions: rat; strain Fischer 344; females; by gavage; site: liver; lesion: hepatocellular adenoma; dosed 102 weeks; study length 104 weeks
Reported metric: TD50

Briefly, TD50 measured for C=C1C/C(=C/C)C(=O)O[C@@H]2CCN3CC=C(COC(=O)[C@@]1(O)CO)[C@H]23 : 1.63 mg/kg/day
